test system: NF-κ B activation; assay: Inhibitory activity of NF-κB activation, luciferase reporter assay under TNF-α stimulation in HepG2; type: cell-based, human; settings: Drug concentration at 1 μg/mL; HepG2, TNF-α 40 ng/ml, 4 hours
Assignment: determine reported Inhibitory rate against NF-κB activation (%) for the given compounds.
Numbers only, in %.

Look over these answered cases.
1. COc1ccc(-c2ccccc2)cc1NC(=O)c1cc(Cl)ccc1O [compound 141] | 82.4
2. O=C(Nc1cc(Cl)cc(Cl)c1)c1cc(I)ccc1O [compound 127] | 85.4
3. CC(=O)Oc1ccc(Cl)cc1C(=O)Nc1nc(C(C)(C)C)c(C(=O)C(C)(C)C)s1 [compound 200] | 95.0

List Inhibitory rate against NF-κB activation (%) for every entry below, keeping the order given.
1. O=C(Nc1cc(C(F)(F)F)ccc1OCC(F)(F)F)c1cc(Cl)ccc1O [compound 113]
2. O=C(Nc1cc(C(F)(F)F)ccc1N1CCC(C(F)(F)F)CC1)c1cc(Cl)ccc1O [compound 112]
3. COc1ccc(C(C)(C)c2ccccc2)cc1NC(=O)c1cc(Cl)ccc1O [compound 173]
4. CCOC(=O)c1sc(NC(=O)c2cc(-n3cccc3)ccc2O)nc1-c1ccccc1 [compound 229]
5. Cc1ccc(O)c(C(=O)Nc2cc(Cl)cc(Cl)c2)c1 [compound 131]
6. Cc1ccc(O)c(C(=O)Nc2cc(C(F)(F)F)ccc2Cl)c1 [compound 100]
7. O=C(Nc1cc(Cl)cc(Cl)c1)c1cc(F)ccc1O [compound 124]
8. CCOc1ccc(OCC)c(NC(=O)c2cc(Cl)ccc2O)c1 [compound 152]

90.5
96.5
86.4
74.0
49.1
85.6
94.2
35.1

List Inhibitory rate against NF-κB activation (%) for every entry below, keeping the order given.
1. CCOC(=O)c1sc(NC(=O)c2cc(Br)ccc2O)nc1-c1ccccc1 [compound 218]
2. COc1ccc(Oc2ccc(C(F)(F)F)cc2NC(=O)c2cc(Cl)ccc2O)cc1 [compound 253]
3. O=C(Nc1ccccc1)Nc1ccc(O)c(C(=O)Nc2cc(C(F)(F)F)cc(C(F)(F)F)c2)c1 [compound 46]
4. CC(C)NC(=O)c1sc(NC(=O)c2cc(Br)ccc2O)nc1-c1ccccc1 [compound 222]
5. C#Cc1ccc(O)c(C(=O)Nc2cc(C(F)(F)F)cc(C(F)(F)F)c2)c1 [compound 21]
6. O=C(Nc1cccc(Br)n1)c1cc(Cl)ccc1O [compound 243]
7. O=C(Nc1cc(C(F)(F)F)cc(C(F)(F)F)c1)c1cc(Cl)cnc1O [compound 75]

1. 80.7
2. 96.3
3. 20.5
4. 49.6
5. 53.3
6. 84.2
7. 58.1
